Quick list: MIC per entry.
tested on: carbapenem-susceptible A. baumannii isolates (n = 54); assay: MIC, broth microdilution (EUCAST), carbapenem-susceptible A. baumannii isolates; format: cell-based, Acinetobacter baumannii; details: Acinetobacter baumannii, isolate Ab67; ST 1; ADC-11, OXA-69; in combinations ETZ fixed at 8 mg/L

CC1(C)[C@H](C(=O)O)N2C(=O)C[C@H]2S1(=O)=O | 1 µg/mL
C[C@@H](O)[C@H]1C(=O)N2C(C(=O)O)=C(SCCN=CN)C[C@H]12 | 0.25 µg/mL
C[n+]1ccn(C[C@@]2(C)[C@H](C(=O)[O-])N3C(=O)C[C@H]3S2(=O)=O)n1 | 4 µg/mL

Checklist item: MIC tested on carbapenem-susceptible A. baumannii isolates (n = 54), entry CO/N=C(\C(=O)N[C@@H]1C(=O)N2C(C(=O)[O-])=C(C[N+]3(C)CCCC3)CS[C@H]12)c1csc(N)n1 [cefepime] , value?
2 µg/mL

====

Quick list: MIC per entry.
system: A. non-baumannii isolates (n = 87); experiment: MIC, broth microdilution (EUCAST), A. non-baumannii isolates; format: cell-based, Acinetobacter spp. (non-baumannii); settings: Acinetobacter lactucae, isolate NO-Ab86, Acinetobacter dijkshoorniae; in combinations ETZ fixed at 8 mg/L; read-out: MIC
# number only, unit µg/mL dropped from output

Below: 3 compounds and their reported MIC.
CC1(C)[C@H](C(=O)O)N2C(=O)C[C@H]2S1(=O)=O [sulbactam] | 1
C[C@@H](O)[C@H]1C(=O)N2C(C(=O)O)=C(SCCN=CN)C[C@H]12 [imipenem] | 0.12
CO/N=C(\C(=O)N[C@@H]1C(=O)N2C(C(=O)[O-])=C(C[N+]3(C)CCCC3)CS[C@H]12)c1csc(N)n1 [cefepime] | 1

--- query ---
Checklist item: MIC tested on A. non-baumannii isolates (n = 87), entry C[n+]1ccn(C[C@@]2(C)[C@H](C(=O)[O-])N3C(=O)C[C@H]3S2(=O)=O)n1 [enmetazobactam] , value?
2

====

tested on: carbapenem-resistant A. baumannii (CRAB) isolates (n = 67); test: MIC, broth microdilution (EUCAST), carbapenem-resistant A. baumannii isolates; assay type: cell-based, Acinetobacter baumannii; details: Acinetobacter baumannii, isolate Ab83; ST 25; ADC-5, OXA-64, OXA-23; ETZ fixed 8 mg/L in combinations
recorded metric: MIC (µg/mL)
# number only, unit µg/mL dropped from output

CC1(C)[C@H](C(=O)O)N2C(=O)C[C@H]2S1(=O)=O [sulbactam] | 32

Tell me the measured MIC of C[C@@H](O)[C@H]1C(=O)N2C(C(=O)O)=C(SCCN=CN)C[C@H]12 [imipenem] , please.
32

Tell me the measured MIC of C[n+]1ccn(C[C@@]2(C)[C@H](C(=O)[O-])N3C(=O)C[C@H]3S2(=O)=O)n1 [enmetazobactam] , please.
64

Tell me the measured MIC of CO/N=C(\C(=O)N[C@@H]1C(=O)N2C(C(=O)[O-])=C(C[N+]3(C)CCCC3)CS[C@H]12)c1csc(N)n1 [cefepime] , please.
64

====

test system: carbapenem-resistant A. baumannii (CRAB) isolates (n = 67); assay: MIC, broth microdilution (EUCAST), carbapenem-resistant A. baumannii isolates; format: cell-based, Acinetobacter baumannii; details: Acinetobacter baumannii, isolate Ab141; ST 745; ADC-30, OXA-66, OXA-58; ETZ fixed 8 mg/L in combinations
Quick list: MIC per entry.
# number only, unit µg/mL dropped from output

Below: 3 compounds and their reported MIC.
CO/N=C(\C(=O)N[C@@H]1C(=O)N2C(C(=O)[O-])=C(C[N+]3(C)CCCC3)CS[C@H]12)c1csc(N)n1 [cefepime] | 32
C[n+]1ccn(C[C@@]2(C)[C@H](C(=O)[O-])N3C(=O)C[C@H]3S2(=O)=O)n1 | 8
CC1(C)[C@H](C(=O)O)N2C(=O)C[C@H]2S1(=O)=O | 8

--- query ---
Tell me the measured MIC of C[C@@H](O)[C@H]1C(=O)N2C(C(=O)O)=C(SCCN=CN)C[C@H]12 , please.
16
